Biological target: human OX2R (Homo sapiens)
Construct: expressed in transfected cells; host or cells: CHO (Chinese hamster ovary) cells, line CHOOX2R, co-expressing NFAT-luciferase
Test: Agonist activity against OX2R: intracellular calcium (Fura-2AM, FDSS7000) in CHOOX2R cells
Assay type: cell-based
Conditions: 10 μM test compound; relative to orexin-A as full agonist (100%)
observedProperty: Response (%) OX2R

COc1ccc(-c2cccc(C(=O)N(C)C)c2)cc1S(=O)(=O)Nc1cccc(NC(=O)/C=C/c2ccoc2)c1 | 74
COc1ccc(Nc2cccc(NS(=O)(=O)c3cc(-c4cccc(C(=O)N(C)C)c4)ccc3OC)c2)cc1OC | 87
COc1ccc(-c2cccc(C(=O)N(C)C)c2)cc1S(=O)(=O)Nc1cccc(NC(=O)c2cccc3ccccc23)c1 | 98

[I] COc1ccc(CNc2cccc(NS(=O)(=O)c3cc(-c4cccc(C(=O)N(C)C)c4)ccc3OC)c2)cc1
[II] COc1cccc(NC(=O)Nc2cccc(NS(=O)(=O)c3cc(-c4cccc(C(=O)N(C)C)c4)ccc3OC)c2)c1
[III] COc1ccc(-c2cccc(C(=O)N(C)C)c2)cc1S(=O)(=O)Nc1cccc(NC(=O)c2cccc(N(C)C)c2)c1
Problem: Please list the entries, largest Response (%) OX2R first. Reply with the item labels sorted in the order that was asked for.
Solution: II, I, III
(II: 95%, I: 48%, III: 24%)

* * *

We begin with a simple list: items and their reported Emax at 0.1 µM.
Target: human OX1R (Homo sapiens)
Construct: expressed in transfected cells; host or cells: CHO (Chinese hamster ovary) cells, line CHOOX1R, co-expressing NFAT-luciferase
Sequence (O43613 1-425): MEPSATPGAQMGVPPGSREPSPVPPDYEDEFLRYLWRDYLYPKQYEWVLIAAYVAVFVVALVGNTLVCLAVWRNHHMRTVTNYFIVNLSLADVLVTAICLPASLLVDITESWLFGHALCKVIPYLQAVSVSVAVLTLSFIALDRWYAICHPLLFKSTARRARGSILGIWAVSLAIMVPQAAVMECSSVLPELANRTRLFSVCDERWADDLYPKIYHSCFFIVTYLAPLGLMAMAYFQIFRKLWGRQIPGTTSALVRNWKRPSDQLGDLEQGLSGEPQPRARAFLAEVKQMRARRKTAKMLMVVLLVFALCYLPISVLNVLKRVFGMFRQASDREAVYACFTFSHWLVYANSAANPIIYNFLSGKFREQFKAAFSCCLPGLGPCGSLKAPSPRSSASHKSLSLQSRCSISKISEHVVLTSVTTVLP
Assay: Agonist activity against OX1R: intracellular calcium (Fura-2AM, FDSS7000) in CHOOX1R cells
Format: cell-based
Conditions: read-out: Response (%) OX1R

Below, 2 compounds whose answers are already recorded.
COc1ccc(-c2cccc(C(=O)N(C)C)c2)cc1S(=O)(=O)Nc1cccc(NC(=O)Nc2cccc(N(C)C)c2)c1OC | < 5%
COc1ccc(-c2cccc(C(=O)N(C)C)c2)cc1S(=O)(=O)Nc1cccc(NC(=O)N(C)c2cccc(N(C)C)c2)c1 | < 5%

Now consider a different compound.
Problem: What does the record list as Emax at 0.1 µM for COc1ccc(-c2cccc(C(=O)N(C)C)c2)cc1S(=O)(=O)Nc1cccc(N(C)C(=O)Nc2cccc(N(C)C)c2)c1 ?
Solution: < 5%

* * *

Biological target: human OX2R (Homo sapiens, UniProt O43614)
Construct: expressed in transfected cells; host or cells: CHO (Chinese hamster ovary) cells, line CHOOX2R, co-expressing NFAT-luciferase
Sequence (O43614 whole entry): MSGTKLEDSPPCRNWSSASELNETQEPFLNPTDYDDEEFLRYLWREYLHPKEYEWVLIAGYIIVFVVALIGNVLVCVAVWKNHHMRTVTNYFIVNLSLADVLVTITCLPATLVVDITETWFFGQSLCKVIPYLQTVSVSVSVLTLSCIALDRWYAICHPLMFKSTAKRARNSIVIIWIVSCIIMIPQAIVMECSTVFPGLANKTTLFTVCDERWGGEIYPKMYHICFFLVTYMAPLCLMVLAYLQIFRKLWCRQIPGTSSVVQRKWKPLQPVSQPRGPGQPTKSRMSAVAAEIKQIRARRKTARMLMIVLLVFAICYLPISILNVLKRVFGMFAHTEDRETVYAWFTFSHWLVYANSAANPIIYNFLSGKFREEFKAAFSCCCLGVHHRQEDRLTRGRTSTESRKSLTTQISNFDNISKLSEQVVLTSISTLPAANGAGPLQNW
Experiment: Agonist activity against OX2R: intracellular calcium (Fura-2AM, FDSS7000) in CHOOX2R cells
Type: cell-based
Settings: test compound 1.0 μM; relative to orexin-A as full agonist (100%)
observedProperty: Response (%) OX2R

Examples with their reported Response (%) OX2R follow.
COc1ccc(-c2cccc(C(=O)N(C)C)c2)cc1S(=O)(=O)Nc1cccc(NCC(=O)NCc2cccc(C)c2)c1 [Example 92] | 95
COc1ccc(-c2cccc(C(=O)N(C)C)c2)cc1S(=O)(=O)Nc1cccc(N(C)C(=O)Nc2cccc(N(C)C)c2)c1 [Example 125] | 78

[1] COc1ccc(-c2cccc(C(=O)N(C)C)c2)cc1S(=O)(=O)Nc1cccc(N2CCCN(c3ccccc3)C2=O)c1 [Example 132]
[2] CNc1cccc(NS(=O)(=O)c2cc(-c3cccc(C(=O)N(C)C)c3)ccc2OC)c1 [Example 95]
[3] COc1ccc(C(=O)NCc2ccccc2)cc1S(=O)(=O)Nc1cccc(NC(=O)Nc2ccc(N(C)C)cc2)c1 [Example 108]
Problem: Sort these compounds on Response (%) OX2R so the largest reading comes first. List labels; respect the requested ordering.
Solution: 1, 2, 3
(1: 100%, 2: 11%, 3: 6%)
